Assay: chemical genetic growth profiling, strain panel (AID 1159580);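 also: tested at 20 µM; growth read once vehicle control cultures reached saturation at 30 °C; 1 = growth at the plate median or of vehicle wells; lower values mean less growth of the strain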
Details: S. cerevisiae deletion strains, growth OD, locus YLR085C, strain ARP6, active compounds read low
Out of some 5,500 compounds screened, about 2,000 (36%) were called active. Roughly 18% stayed inconclusive and do not appear here. The list shows a part of the results.
observation-type: normalized growth

>>> readout_number("N/C(=N/OC(=O)Nc1ccccc1)c1ccc(C2SCCS2)cc1")
0.39
>>> readout_number("O=S(=O)(c1ccc(Cl)cc1)c1cc(C(F)(F)F)cc(C(F)(F)F)c1")
0.935
>>> readout_number("COC(=O)c1ccsc1N")
0.94
>>> readout_number("Cc1onc2c(=O)n(-c3ccccc3)nc(-c3ccccc3)c12")
0.769
>>> readout_number("COC(=O)c1cscc1Sc1ccc(Cl)cc1")
0.664
>>> readout_number("Cc1c(C)c(C)c(CSc2nc3ccccc3[nH]2)c(C)c1C")
1.01
>>> readout_number("FC(F)(F)c1cc(Cl)c2nsnc2c1")
1.01
>>> readout_number("NC(N)=NC(N)=Nc1ccccc1C(F)(F)F")
1.01
>>> readout_number("O=c1oc2ccccc2cc1[N+](=O)[O-]")
0.071
>>> readout_number("O/N=C(/CNC(c1ccccc1)(c1ccccc1)c1ccccc1)c1ccccc1")
0.819
>>> readout_number("O=S(=O)(NCc1ccc(F)cc1F)c1cccc(C(F)(F)F)c1")
0.954
>>> readout_number("CC(=O)NC(CCC(=O)O)C(=O)O (stereo unspecified)")
0.975
>>> readout_number("Cn1c(=S)[nH]c2cc(C(F)(F)F)ccc21")
0.378
>>> readout_number("NNC(=O)c1cnn(-c2ccc(Cl)cc2)c1C(F)(F)F")
0.976
>>> readout_number("O=C(Nc1cc(C(F)(F)F)cc(C(F)(F)F)c1)C(c1ccccc1)C1CCCC1 (stereo unspecified)")
1.01
>>> readout_number("Nc1ccc(Oc2ccc(Cl)cc2C2CCCCC2)nc1")
0.451
>>> readout_number("CC12CCC3C(CC[C@H]4CC5(CCC34C)OCCO5)C1CCC2O (stereo partly specified)")
1.03
>>> readout_number("Cc1cc(Cl)ccc1Oc1ccc(N)cn1")
0.602
>>> readout_number("O=[N+]([O-])c1ccc(C(O)C(O)CO)cc1 (stereo unspecified)")
0.986
>>> readout_number("O=C1CCc2cccc3cccc1c23")
0.764
>>> readout_number("COc1cscc1C(N)=O")
0.965
>>> readout_number("CC(=O)c1ccc(N2C(=O)CSCC2=O)cc1")
1.04
>>> readout_number("O=C1CSCC(=O)N1c1ccc(F)c(Cl)c1")
0.978
>>> readout_number("Brc1cccc(C=NCc2ccccc2)c1")
0.333
>>> readout_number("CCN1CN=C(SCc2ccc(Br)cc2)NC1")
1.02
>>> readout_number("O=C1NN(c2ccccc2)C(=S)Nc2ccccc21")
0.984
